System: methicillin-resistant Staphylococcus aureus (MRSA)
Experiment: Determination of MIC values (BHI broth, 96 well microtiter plate)
Assay type: cell-based
Settings: Staphylococcus aureus, MRSA; BHI broth, overnight 37° C.; read-out: MIC MRSA
Outcome measure: MIC

Record excerpt, results attached:
>  <Compound>
COc1ccc2[nH]c(C)c(-c3ccc4c([N+](=O)[O-])cccc4n3)c2c1

>  <Outcome measure>
MIC

>  <Recorded measurement>
> 25 µg/mL

$$$$
>  <Compound>
CC(=O)Oc1cccc2[nH]cc(-c3ccc4cc(Cl)ccc4n3)c12

>  <Outcome measure>
MIC

>  <Recorded measurement>
< 7 µg/mL

$$$$
>  <Compound>
NCCNC(=O)c1cc(-c2c[nH]c3ccc(Br)cc23)nc2cc(Cl)c(I)cc12

>  <Outcome measure>
MIC

>  <Recorded measurement>
< 7 µg/mL

$$$$

**Query** Please list MIC recorded for the compound Cn1cc(-c2cc(C(=O)NCC3CCC(CN)CC3)c3ccc(I)cc3n2)c2cc(Br)ccc21 (centres unmarked)
**Result** < 7 µg/mL

**Query** Return reported MIC. Input compound: NCC1CCC(CNC(=O)c2cc(-c3c[nH]c4ccc(Br)cc34)nc3cc(Cl)cc(Cl)c23)CC1 (centres unmarked)
**Result** < 7 µg/mL

**Query** Given Cn1cc(-c2cc(C(=O)NCc3cccc(CN)c3)c3ccc(F)cc3n2)c2cc(Br)ccc21 , respond with its MIC.
**Result** < 25 µg/mL

**Query** Supply reported MIC belonging to this compound: NCc1ccc(CNC(=O)c2cc(-c3c[nH]c4ccc(Br)cc34)nc3c(C#CCN4CC=CCC4)cccc23)cc1
**Result** < 7 µg/mL

**Query** Identify measured MIC associated with O=C(O)c1cc(-c2c[nH]c3ccc(Br)cc23)nc2ccc(C#CCN3CCCC3)cc12
**Result** > 25 µg/mL

====

System: Streptococcus pneumoniae
Assay: Determination of MIC values (BHI broth, 96 well microtiter plate)
Format: cell-based
Conditions: Streptococcus pneumoniae; BHI broth, 37° C., about 16 hours; read-out: MIC S. pneu
Protocol: Stock solutions of compounds are prepared with a concentration of 10 mg/mL. These solutions are then diluted 1:4 to give a concentration of 2.5 mg/mL. The compounds are then serially diluted 1:2 for 6 iterations. The concentrations made for each compound are 2.5, 1.25, 0.625, 0.3125, 0.156, 0.078, and 0.039 mg/mL. A control sample (no compound) is run along with each compound tested. All dilutions are made in DMSO. […]
Outcome measure: MIC

Reference set (5 entries):
>  <Chemical smiles>
Cc1cccc2ccc(-c3c[nH]c4c(C)cccc34)nc12

>  <MIC>
< 7 µg/mL

$$$$
>  <Chemical smiles>
CN(CC[N+](C)(C)C)C(=O)c1cc(-c2c[nH]c3ccc(Br)cc23)nc2cc(Cl)ccc12

>  <MIC>
< 7 µg/mL

$$$$
>  <Chemical smiles>
Cc1ccc2nc(-c3c[nH]c4ccc(C)cc34)ccc2c1

>  <MIC>
< 25 µg/mL

$$$$
>  <Chemical smiles>
Cc1ccc2nc(-c3c[nH]c4c(C)cccc34)ccc2c1

>  <MIC>
> 25 µg/mL

$$$$
>  <Chemical smiles>
NCCNC(=O)c1cc(-c2c[nH]c3ccc(Br)cc23)nc2ccc(C#CCN3CCCCC3)cc12

>  <MIC>
< 7 µg/mL

$$$$

**Query** Report measured MIC; entry is Cc1ccc2nc(-c3c(C)[nH]c4ccc(Cl)cc34)ccc2c1
**Result** < 7 µg/mL

**Query** Please indicate MIC recorded for Cc1ccc2nc(-c3c(C)[nH]c4ccc(C)cc34)ccc2c1
**Result** > 25 µg/mL

**Query** Note down MIC recorded for Cc1cccc2ccc(-c3c[nH]c4ccc(Br)cc34)nc12
**Result** > 25 µg/mL
